System: Oryza sativa
procedure text: Effect on Oryza sativa (rice) assessed as growth rate at 0.1 uM relative to control
Assay type: organism-based
measurement conditions: in vivo
For each entry below, report its Activity value.
State just the number; it will be interpreted in %.

[ask] Endpoint output: Activity of C[C@H](NC(=O)Nc1ccc(F)cc1)c1ccccc1 . Value?
[reply] 96

[ask] Also check CC(C)c1ccccc1NC(=O)N[C@H](C)c1ccccc1
[reply] 103

[ask] Also check C[C@H](NC(=O)Nc1cccc(C(F)(F)F)c1F)c1ccccc1
[reply] 99

[ask] Also check CC(=O)c1ccccc1NC(=O)N[C@H](C)c1ccccc1
[reply] 96

[ask] Also check CCc1ccc(NC(=O)N[C@H](C)c2ccccc2)cc1
[reply] 95

[ask] Also check CC(=O)c1cccc(NC(=O)N[C@@H](C)c2ccccc2)c1
[reply] 96

[ask] Also check C[C@@H](NC(=O)Nc1ccc(F)c(F)c1)c1ccccc1
[reply] 99

[ask] Also check C[C@@H](NC(=O)Nc1cccc(Br)c1)c1ccccc1
[reply] 100

[ask] Also check C[C@@H](NC(=O)Nc1ccc(Cl)cc1)c1ccccc1
[reply] 96

[ask] Also check C[C@@H](NC(=O)Nc1cc(C(F)(F)F)cc(C(F)(F)F)c1)c1ccccc1
[reply] 100

[ask] Also check C[C@H](NC(=O)Nc1cc(C(C)(C)C)ccc1C(C)(C)C)c1ccccc1
[reply] 98

[ask] Also check Cc1ccccc1NC(=O)N[C@@H](C)c1ccccc1
[reply] 100

[ask] Also check C[C@@H](NC(=O)Nc1cccc(F)c1F)c1ccccc1
[reply] 100

[ask] Also check C[C@H](NC(=O)Nc1ccccc1I)c1ccccc1
[reply] 99

[ask] Also check C[C@H](NC(=O)Nc1cc(Cl)ccc1Cl)c1ccccc1
[reply] 100

[ask] Also check C[C@H](NC(=O)Nc1ccc(F)c(F)c1)c1ccccc1
[reply] 99

[ask] Also check CCOC(=O)c1ccc(NC(=O)N[C@@H](C)c2ccccc2)cc1
[reply] 99

[ask] Also check Cc1cccc(NC(=O)N[C@H](C)c2ccccc2)c1
[reply] 100

[ask] Also check C[C@H](NC(=O)Nc1cc(C(F)(F)F)ccc1F)c1ccccc1
[reply] 98

[ask] Also check C[C@@H](NC(=O)Nc1cc(Cl)cc(Cl)c1)c1ccccc1
[reply] 99

[ask] Also check CC(C)c1ccc(NC(=O)N[C@H](C)c2ccccc2)cc1
[reply] 99

[ask] Also check C[C@H](NC(=O)Nc1ccc(I)cc1)c1ccccc1
[reply] 99

[ask] Also check CCc1ccc(NC(=O)N[C@@H](C)c2ccccc2)cc1
[reply] 99

[ask] Also check C[C@H](NC(=O)Nc1cccc(Cl)c1Cl)c1ccccc1
[reply] 100

[ask] Also check C[C@@H](NC(=O)Nc1cc(C(F)(F)F)ccc1F)c1ccccc1
[reply] 87

[ask] Also check C[C@H](NC(=O)Nc1ccccc1F)c1ccccc1
[reply] 98

[ask] Also check CCc1cccc(NC(=O)N[C@@H](C)c2ccccc2)c1
[reply] 100

[ask] Also check C[C@@H](NC(=O)Nc1ccc(C(C)(C)C)cc1)c1ccccc1
[reply] 100

[ask] Also check C[C@@H](NC(=O)Nc1c(Cl)cccc1Cl)c1ccccc1
[reply] 100

[ask] Also check C[C@@H](NC(=O)Nc1cc(F)cc(F)c1)c1ccccc1
[reply] 98

[ask] Also check CCOC(=O)c1ccccc1NC(=O)N[C@@H](C)c1ccccc1
[reply] 100

[ask] Also check C[C@@H](NC(=O)Nc1cc(C(C)(C)C)ccc1C(C)(C)C)c1ccccc1
[reply] 100

[ask] Also check C[C@H](NC(=O)Nc1cccc(Br)c1)c1ccccc1
[reply] 100

[ask] Also check Cc1cccc(NC(=O)N[C@@H](C)c2ccccc2)c1
[reply] 99

[ask] Also check CCOC(=O)c1cccc(NC(=O)N[C@H](C)c2ccccc2)c1
[reply] 99

[ask] Also check C[C@H](NC(=O)Nc1ccc(Br)cc1)c1ccccc1
[reply] 98

[ask] Also check CCCCc1ccc(NC(=O)N[C@@H](C)c2ccccc2)cc1
[reply] 98

[ask] Also check C[C@@H](NC(=O)Nc1cccc(C(F)(F)F)c1)c1ccccc1
[reply] 82

[ask] Also check Cc1ccc(NC(=O)N[C@H](C)c2ccccc2)cc1
[reply] 100

[ask] Also check CCc1ccccc1NC(=O)N[C@@H](C)c1ccccc1
[reply] 100

[ask] Also check CC(C)c1ccccc1NC(=O)N[C@@H](C)c1ccccc1
[reply] 99

[ask] Also check CCCCc1ccc(NC(=O)N[C@H](C)c2ccccc2)cc1
[reply] 100

[ask] Also check CCCc1ccc(NC(=O)N[C@@H](C)c2ccccc2)cc1
[reply] 97

[ask] Also check Cc1ccc(NC(=O)N[C@@H](C)c2ccccc2)c(F)c1
[reply] 100

[ask] Also check CC(=O)c1ccccc1NC(=O)N[C@@H](C)c1ccccc1
[reply] 100

[ask] Also check CCc1cccc(CC)c1NC(=O)N[C@H](C)c1ccccc1
[reply] 101

[ask] Also check Cc1ccc(NC(=O)NC(C)(C)c2ccccc2)cc1 [DAIMURON]
[reply] 99

[ask] Also check COc1cccc(NC(=O)N[C@H](C)c2ccccc2)c1
[reply] 104
